Cited source: paper PMC7826789

Assignment: determine reported Percent Control for the given compounds.
# Tested on: EGFR(E746-A750del);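 also: KINOMEscan scanMAX binding as percent activity remaining versus control; lower means stronger binding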
# Measurement setup: Compound Concentration (nM):1000
Express your answer as a number followed by its unit.

• Cl.O=C(Nc1ccc(Oc2ccc3[nH]c(NC(=O)c4ccccc4)nc3c2)cc1)Nc1cc(C(F)(F)F)ccc1F [GW709042A] = 94%

Parameter requested: Percent Control. Apply to each item below.
1. CCn1c(-c2nonc2N)nc2c(C#CC(C)(C)O)nc(OCCNC)cc21.Cl
2. C[C@@H](Oc1cc(-n2cnc3ccc(OC4CCN(C)CC4)cc32)sc1C(N)=O)c1ccccc1Cl [GSK579289A]
3. COc1cc2ncn(-c3cc(O[C@H](C)c4ccccc4Cl)c(C(N)=O)s3)c2cc1OC [GSK237701A]
4. Cl.O=C(O[C@H]1CN[C@H](C#Cc2cc3ncnc(Nc4ccc5c(cnn5Cc5ccccc5)c4)c3s2)C1)N1CCOCC1 [GSK200398A]
5. CC(C)COC(=O)c1ccc2c(c1)/C(=C/Nc1ccc(S(N)(=O)=O)cc1)C(=O)N2 [GW416981X]
6. COc1ccc2[nH]c3c4[nH]c5ccc(OC)cc5c4c4c(c3c2c1)C(=O)NC4=O [GW296115X]
7. CCc1ccc(Oc2nccc(-c3c(-c4ccc(F)cc4)ncn3C3CCNCC3)n2)cc1

["97%", "92%", "85%", "38%", "82%", "20%", "46%"]
